# Tested on: HCT-15 colon
# assay info: NCI-60 one-dose screen, 48 h (100 = growth as untreated, 0 = no growth, -100 = all killed)
# run parameters: 10 µM unless noted
The panel holds about 83,000 compounds, 20% with a hit somewhere; the sample as a whole holds those more often.
quantity name: growth (%)
Hi! Could you send only the number? It should be in %, unit omitted.

Use the examples below as a reference point.
compound	measurement target	reading unit	growth
COc1cc(-c2nc3ccc(-c4nnc(SCC(=O)Nc5ccc(C(=O)/C=C/c6ccc(Cl)cc6)cc5)o4)cc3[nH]2)cc(OC)c1OC	HCT-15 colon	%	86.9
CN1CCN(Cc2ccc(NC(=O)c3cncc(C#Cc4cnc5[nH]ncc5c4)c3)cc2C(F)(F)F)CC1	HCT-15 colon	%	19.4
O=C(Oc1ccc2ccc(=O)oc2c1)c1ccc(Cl)cc1	HCT-15 colon	%	97.9
COc1ccc(-c2csc(N/N=C/c3c(-c4ccc(S(C)(=O)=O)cc4)nc4ccccn34)n2)cc1	HCT-15 colon	%	101
CCCCCCNC(=O)Oc1ccc(/C(=C(/C)c2ccccc2)c2ccc(OCCN3CCCCCC3)cc2)cc1	HCT-15 colon	%	9.9

IN: Annotate the compound COc1ccccc1C(=O)CSc1nc(Nc2ccc(S(N)(=O)=O)cc2)c2ccccc2n1 with its measured growth.
OUT: 92.4

IN: Determine from records and report growth for COc1ccc(-c2nn3c(-c4ccccc4F)nnc3s2)cc1
OUT: 31.5

IN: Provide one value: measured growth of O=C1Nc2cc(Cl)ccc2/C1=C\c1ccc(OCc2ccc([N+](=O)[O-])cc2)cc1
OUT: 77.8

IN: Identify measured growth associated with COc1ccccc1/C=C/C=N/NC1=NC2C(S1)N(C)C(=O)N2C (configuration not stated)
OUT: 30.4

IN: Please report the measured growth for Clc1ccc2oc3c(NCCCn4ccnc4)c4ccccc4nc3c2c1
OUT: 13

IN: Recall and state the measured growth for OC1CCN(CCCOc2c3ccc(Cl)cc3nc3c2oc2ccc(Cl)cc23)CC1 .
OUT: -83

IN: Note growth for the compound shown: COC(=O)C1CN(S(=O)(=O)/N=C2\NC(=O)NC2=C(Cl)Cl)C1
OUT: 107

###

# Tested on: UACC-257 melanoma
# assay info: NCI-60 one-dose screen, 48 h
# run parameters: 10 µM unless noted
Compounds without any hit were thinned out: in the full panel of roughly 83,000, 20% have a hit. Active and inactive are the calls of the source. Rule for the calls: active = growth percent below 10; inactive = the rest.
Respond using exactly one of the listed classes: active, inactive

Known results for compounds:
compound	qualitative label
Nc1c(C(=O)Nc2ccc(Cl)cc2)sc2nc(-c3cnccn3)cc(-c3cccs3)c12	inactive
O=c1/c(=C\c2ccc(-c3ccccc3)o2)sc2nc(-c3ccccc3)nn12	inactive
CCOC(=O)c1sc(NCC(=O)Nc2cccc([N+](=O)[O-])c2)c(C(=O)OCC)c1C	active
COc1ccc(-c2csc(N/N=C/c3c(-c4ccc(S(C)(=O)=O)cc4)nc4ccccn34)n2)cc1	inactive
C=C1CC[C@H]2[C@@](C)(CCC3OC(c4ccc(OCc5cn(C6CC(OC(C)=O)C(OC(C)=O)C(COC(C)=O)O6)nn5)cc4)OC[C@]32C)[C@@H]1/C=C/C1=CCOC1=O (some centres not stated)	inactive
Fc1ccc(-c2nc(C(Cl)Cl)nc3cc(-c4ccccc4)nn23)cc1	active
CCN1C(=S)N(c2ccccc2)C2NC(=O)N(/N=C/C=C/c3ccccc3OC)C21 (configuration not stated)	inactive
COC(=O)C(Cc1ccccc1)NS(=O)(=O)/N=C1\NC(=O)NC1=C(Cl)Cl (configuration not stated)	inactive

IN: Please indicate how the test categorized Nc1cc(-c2c[nH]c3ccccc23)nc2cc(-c3c[nH]c4ccccc34)nn12 .
OUT: inactive

IN: Please share the test call associated with O=c1[nH]c2ccc(Cl)cc2cc1CSc1ccccc1Nc1nccc(-c2ccc(Cl)cc2)n1 .
OUT: inactive
